Reported CDC EC50 values for the following binders.
Target: human Claudin18.2 (human)
Assay: cell-based or functional assay
# value in µg/mL; strip the unit string

{"binder": "414A5F7 (antibody, V domains shown) VH: DVQLVESGGGLVQPGGSRKLSCAASGFTFSSFGMHWVRQAPEKGLEWVAYISSGSSPIYYADTVKGRFTISRDNPKNTLFLQMTSLRSEDTAMYFCARIYYGNSFAYWGQGTLVTVSA VL: DIVMTQSPSSLTVTAGEKVAMSCKSSQTLLNSGNQKNYLTWYQQKPGQPPKLLLYWASTRESGVPDRFTGSGSGTDFTLTISSVQAEDLAVYYCQNAYYYPLTFGSGTKLELK", "CDC EC50 (µg/mL)": 0.458}

# binder 394C2G5 (antibody, V domains shown) VH: DVQLVESGGGLVQPGGSRKLSCAASGFTFSGFGMHWIRQTPEKGLEWVAYVSSGSRPIYYADTVKGRFTISRDNPKNTLFLQMTSLRSEDTAMYFCARFYYGNSFDHWGQGTLVTVSA VL: DIVMTQSPSFLTVTAGEKVTMSCKSSQSLLNSGNQKNYLTWYQQKPGQPPKLLIYWASTRESGVPDRFTGSGSGTDFTLTINNVQAEDLALYYCQNAYSFPLTFGAGTKLELT ; its CDC EC50 = 1.98
